Target: T1, human ABCC4 (human, UniProt O15439 1-1325)
T1 construct: Expressed on murine C6 cells stably transfected with human ABCC4 cDNA with C-terminal FLAG tag; also called MRP4; Multidrug resistance protein 4; not shown: C-terminal fused FLAG tag
T1 sequence: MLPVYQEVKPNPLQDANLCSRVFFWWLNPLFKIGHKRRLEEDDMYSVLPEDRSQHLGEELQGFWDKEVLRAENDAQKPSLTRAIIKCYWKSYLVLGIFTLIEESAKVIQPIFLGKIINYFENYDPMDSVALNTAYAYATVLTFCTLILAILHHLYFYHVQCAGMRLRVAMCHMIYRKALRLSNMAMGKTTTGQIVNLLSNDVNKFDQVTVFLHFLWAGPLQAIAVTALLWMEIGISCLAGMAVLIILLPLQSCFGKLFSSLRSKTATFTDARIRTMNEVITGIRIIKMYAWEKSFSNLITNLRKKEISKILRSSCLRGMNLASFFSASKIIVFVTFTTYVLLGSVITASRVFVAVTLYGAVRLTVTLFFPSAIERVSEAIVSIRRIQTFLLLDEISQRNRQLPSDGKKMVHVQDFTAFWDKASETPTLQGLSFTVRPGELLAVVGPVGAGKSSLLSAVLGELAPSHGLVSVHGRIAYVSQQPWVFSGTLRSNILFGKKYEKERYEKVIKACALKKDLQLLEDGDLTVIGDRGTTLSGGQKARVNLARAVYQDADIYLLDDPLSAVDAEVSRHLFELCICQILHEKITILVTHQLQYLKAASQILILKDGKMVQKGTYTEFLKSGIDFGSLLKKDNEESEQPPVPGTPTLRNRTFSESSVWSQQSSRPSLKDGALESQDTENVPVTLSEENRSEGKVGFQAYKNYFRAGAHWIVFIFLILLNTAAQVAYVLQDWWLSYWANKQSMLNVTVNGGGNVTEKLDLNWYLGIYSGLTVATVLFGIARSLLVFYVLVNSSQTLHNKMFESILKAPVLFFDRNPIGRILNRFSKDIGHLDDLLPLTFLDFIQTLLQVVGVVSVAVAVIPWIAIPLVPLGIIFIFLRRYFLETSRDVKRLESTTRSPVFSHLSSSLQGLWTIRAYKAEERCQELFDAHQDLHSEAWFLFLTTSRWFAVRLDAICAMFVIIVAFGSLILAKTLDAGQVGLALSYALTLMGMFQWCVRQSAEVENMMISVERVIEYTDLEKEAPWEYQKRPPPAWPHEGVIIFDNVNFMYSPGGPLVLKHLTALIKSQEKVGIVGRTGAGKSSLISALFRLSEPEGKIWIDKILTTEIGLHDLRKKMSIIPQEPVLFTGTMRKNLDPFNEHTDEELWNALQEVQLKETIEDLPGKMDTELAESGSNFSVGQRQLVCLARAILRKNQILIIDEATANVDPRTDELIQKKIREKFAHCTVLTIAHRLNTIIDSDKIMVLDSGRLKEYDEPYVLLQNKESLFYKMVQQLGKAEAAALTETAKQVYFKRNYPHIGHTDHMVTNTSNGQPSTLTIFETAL
Experiment: FACS, C6 cells stably expressing human ABCC4; + = MFI>3x background
Recorded metric: binding result

C4.1139 (antibody, V domains shown) VH: EVQLVESDGGLVQPGRSLKLSCAASGFTFSDYYMAWVRQAPTKGLYWVASISYDGSTTYYRDSVKGRFTISRDNAKSTLYLQMGSLRSEDTATYYCARLSIRYKGVMDAWGRGASVTVSS VL: DVVMTQSPSNLAASPGESVSINCKASKSIGKFLAWYQQKPGRPNKLLIYSGSTLQSGTPSRFSGSGSGTDFTLTIRNLEPGDFGLYYCQHHIEYPPTFGPGTKLELK	binds
C4.1131 (antibody, V domains shown) VH: EVKLVESDGGLVQPRKSLKLSCAASGFTFTDYYMAWVRQGPTMGLEWVATISNDGSTKYYRDSVKGRFTLSRDNAKTTLHLQMDSLRSEDTATYYCARLTIRYKGVMDAWGQGASVTVSS VL: DVVMTQSPSHLAASPGESVSINCKASKNIYKYLAWYQQKPGKTNKLLIYSGSTLQSGTPSRFSGSGSGSDFTLTIRNLEPEDFGLYYCQHHNEYPPTFGGGTKLEIK	binds
